tested on: Streptococcus pyogenes; assay: Antimicrobial activity against Streptococcus pyogenes 345/1 assessed as microbial growth inhibition at 1 mg/ml incubated overnight at 37 degC; type: functional; conditions: read-out: IZ
Please go through the items and note down their zone of inhibition at 1000 µg/mL.

Documented zone of inhibition at 1000 µg/mL of `COC1=Cc2cc(OC)c(OC)c3ccc(-c4ccccc4)c(c23)C1=O` : 1 mm

According to the records, this compound `CC1(C)S[C@@H]2[C@H](NC(=O)[C@H](N)c3ccccc3)C(=O)N2[C@H]1C(=O)O` displays zone of inhibition at 1000 µg/mL of 20 mm

# zone of inhibition at 1000 µg/mL (compound: `O=c1ccc2cc(O)c3oc4ccccc4c4ccc1c2c34` ) is 1 mm

What the record says about `COc1cc(OC)c2ccc(-c3ccccc3)c3c2c1C=C(O)C3=O` : zone of inhibition at 1000 µg/mL is 1 mm

`COc1cc2cc(OC)c3oc4ccccc4c4ccc(c1=O)c2c34` has a reported zone of inhibition at 1000 µg/mL of 2 mm

The recorded zone of inhibition at 1000 µg/mL for entry `COC1=Cc2cc(O)c(OC)c3ccc(-c4ccccc4)c(c23)C1=O` equals 1 mm

For record COC1OC(=O)c2ccc(-c3ccccc3)c3c(O)c(O)cc1c23 (stereo not given) the listed zone of inhibition at 1000 µg/mL is 1 mm

Per the records, this compound ( `COc1cc2cc(O)c3oc4ccccc4c4ccc(c1=O)c2c34` ) has zone of inhibition at 1000 µg/mL equal to 2 mm

Just so you know, measured zone of inhibition at 1000 µg/mL for `COc1cc2ccc(=O)c3ccc4c5ccccc5oc1c4c23` came out at 3 mm

The recorded zone of inhibition at 1000 µg/mL for entry `COC1=Cc2ccc(OC)c3ccc(-c4ccccc4)c(c23)C1=O` equals 1 mm

Reference source: ChEMBL document CHEMBL3588781
